log10(EC50) by entry:
Molecular target: T1, Macaque Trop-2-His (macaque, UniProt P09758 27-274 (human entry))
T1 construct: Extracellular domain of macaque Trop-2 recombinantly linked to His; also called monkey Trop-2-His protein; monkey Trop-2
T1 chain: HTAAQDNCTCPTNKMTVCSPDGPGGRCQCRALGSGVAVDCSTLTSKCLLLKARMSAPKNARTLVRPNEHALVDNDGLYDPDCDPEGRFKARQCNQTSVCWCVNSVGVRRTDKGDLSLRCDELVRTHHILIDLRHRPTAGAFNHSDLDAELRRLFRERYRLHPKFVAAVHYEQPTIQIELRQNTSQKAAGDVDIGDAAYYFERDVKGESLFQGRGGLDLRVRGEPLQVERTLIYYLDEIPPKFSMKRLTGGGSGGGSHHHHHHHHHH
Assay: ELISA, plate-coated macaque Trop-2-His
Note the log scale: values are log10 of EC50 expressed in nM.

INPUT: Requested read-out: log10(EC50). Entry: hz-Ab2-1.4 (antibody, human IgG1, kappa, V domains shown, Humanized antibody) VH: QVQLQESGPGLVKPSETLSLTCTVSGFSLTYYGIDWIRQPPGKGLEWIGVIWGSGNTKYNSALKSRVTISKDNSKSQVYLKLSSVTAADTAVYYCARFYEGFAYWGQGTLVTVSS VL: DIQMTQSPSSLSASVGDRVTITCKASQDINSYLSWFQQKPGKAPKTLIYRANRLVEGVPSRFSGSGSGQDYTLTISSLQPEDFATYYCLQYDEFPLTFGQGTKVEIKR
OUTPUT: -1.28

INPUT: Please give the result for hz-Ab35-2.1 (antibody, human IgG1, kappa, V domains shown, Humanized antibody) VH: QVQLVQSGAEVKKPGASVKVSCKASGYTFTSSDINWVRQRPGQGLEWMGWIYPRDGSKKYAQKFQGRVTMTVDTSTSTVYMELSSLRSEDTAVYYCATRFATVVSNYGLDPWGQGTLVTVSS VL: EIVLTQSPATLSLSPGERATLSCSASSSVNYIYWYQRKPGQAPRLLIYDTSNLASGIPARFSGSGSGTDYTLTISSLEPEDFAVYYCQQWNSYPLTFGQGTKVEIKR too.
OUTPUT: -1.25

INPUT: Same lookup for ch-Ab21 (antibody, human IgG1, kappa, V domains shown, Mouse VH/VL on human IgG1 and human kappa constant regions; also called chimeric antibody of Ab21) VH: EVQLKQSGPGLVQPSQSLSITCTVSGFSLRNYGVHWVRQSPGKGLEWLGVIWSSGTTDYNAAFISRLSITKDNSKSQVFFKMNSLQVDDTAIYNCARDGDYDYYTMDYWGQGTSVTVSS VL: AIVLTQSPASLAVSLGQRATISCRASKSVSTSAYSYIHWYQQKPGQPPKLLIYLTSNLESGVPARFSGSGSGTDFTLNIHPVEEEDAATYYCQHSRELPYTFGGGTKLEIKR , please.
OUTPUT: -1.03

INPUT: // repeat for hz-Ab35-2.3 (antibody, human IgG1, kappa, V domains shown, Humanized antibody) VH: QVQLVQSGAEVKKPGASVKVSCKASGYTFTSSDINWVRQRPGQGLEWMGWIYPRDGSKKYNEKFKGRVTMTVDTSTSTVYMELSSLRSEDTAVYYCATRFATVVSNYGLDPWGQGTLVTVSS VL: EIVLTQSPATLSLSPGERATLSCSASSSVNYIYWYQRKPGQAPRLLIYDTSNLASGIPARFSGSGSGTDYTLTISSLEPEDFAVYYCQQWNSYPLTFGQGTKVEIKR and report
OUTPUT: -1.51

INPUT: Same question for hz-Ab2-2.2 (antibody, human IgG1, kappa, V domains shown, Humanized antibody) VH: EVQLVESGPGLIQPGGSLRLSCAVSGFSLTYYGIDWVRQPPGKGLEWVGVIWGSGNTKYNYALKSRLTISKDNSKSTLYLQMNSLRAEDTAVYYCARFYEGFAYWGQGTLVTVSS VL: DIQMTQSPSSLSASVGDRVTITCRASQDINSYLSWFQQKPGKAPKTLIYRANRLVEGVPSRFSGSGSGQDFTLTISSLQPEDFATYYCLQYDEYPLTFGQGTKVEIKR please.
OUTPUT: -0.47

INPUT: What would you report for hz-Ab35-2.2 (antibody, human IgG1, kappa, V domains shown, Humanized antibody) VH: QVQLVQSGAEVKKPGASVKVSCKASGYTFTSSDINWVRQRPGQGLEWMGWIYPRDGSKKYNEKFKGRVTMTVDTSTSTVYMELSSLRSEDTAVYYCARRFATVVSNYGLDPWGQGTLVTVSS VL: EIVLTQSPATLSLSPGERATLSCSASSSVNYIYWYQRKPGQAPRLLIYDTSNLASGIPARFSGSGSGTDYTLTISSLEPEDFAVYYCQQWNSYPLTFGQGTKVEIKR ?
OUTPUT: -1.30
